- Test system: HCC-2998 colon
- assaySummary: NCI tumour cell line growth inhibition, 48 h
Entries and their TGI
A number alone suffices; assume µM.

- smilesRepr: "CSc1nc2nc3c(nc2c(=O)n1C)C(=O)c1ccccc1C3=O"
  value: 0.855

API: the following record is the query input.
For O=C(C(=O)n1ncc(Cl)c(Cl)c1=O)n1ncc(Cl)c(Cl)c1=O on HCC-2998 colon, measured TGI was 46.9

---

- Test system: HCT-15 colon
- assaySummary: NCI tumour cell line growth inhibition, 48 h
parameterMeasured: TGI

Known results for compounds:
- compound: "O=C(O)CCNS(=O)(=O)c1ccc2ccccc2c1"
  TGI: "> 100 µM"
- compound: "COc1ccc(C)cc(=O)c1O"
  TGI: "> 100 µM"
- compound: "COc1ccccc1NC(=O)C1=C(C)NC(C)=C(C(=O)Nc2ccccc2OC)C1/C=C/c1ccccc1"
  TGI: "> 100 µM"

CC/C(Cc1ccccc1)=C(\c1ccc(OCCN2CCCC2)cc1)c1ccc(OC(=O)NCc2ccccc2)cc1 yielded TGI of 3.07 µM

[N-]=[N+]=NCC(O)Cn1cnc2c(NC(=O)c3ccccc3)ncnc21 (stereo not drawn) yielded TGI of > 100 µM

---

- System: SNB-19 CNS
- assaySummary: NCI tumour cell line growth inhibition, 48 h
Entries and their TGI

CCN(CC)CCCC(C)Nc1cc(-c2cccc(OC(F)(F)F)c2)nc2ccc(N3CCCC3)cc12 (stereo unspecified) yielded TGI of > 100 µM

---

Entries and their TGI
- Test system: SK-MEL-2 melanoma
- assaySummary: NCI tumour cell line growth inhibition, 48 h

Known results for molecules:
- molecule: "S=C1SC(=Nc2ccccc2)C(=Nc2ccccc2)N1c1ccc2ccccc2c1"
  value: "> 100 µM"
- molecule: "CCC(=O)OC1CCn2c1nc1c2C(=O)C(C)=C(NC(C)=O)C1=N (stereo unspecified)"
  value: "3.43 µM"
- molecule: "CC(C)c1cccc(C(C)C)c1N1C(=O)C(=O)C(c2nc3ccccc3o2)C(=O)C1=O"
  value: "> 100 µM"
- molecule: "COc1ccc(C)cc(=O)c1O"
  value: "> 100 µM"
- molecule: "CCCCCC(=O)Nc1nc2nc[nH]c2c(=O)[nH]1"
  value: "> 100 µM"

For CC(C)N(Cc1ccc(CN(C(=O)CCl)C(C)C)cc1)C(=O)CCl on SK-MEL-2 melanoma, measured TGI was 5.88 µM

---

- System: SW-620 colon
- assaySummary: NCI tumour cell line growth inhibition, 48 h; in the data active means GI50 below about 0.43 µM; inactive means the rest
Choose the fitting class; nothing outside y = active, n = inactive is accepted.

// known answers, use as guide
- compound: "CC(=O)OC12C=C(C)C(C(C)C1)C1C(=O)N(CCN3CCCCC3)C(=O)C12 (stereo not drawn)"
  groupLabel: "n"
- compound: "CNCCCNc1nc2ccccc2c2c(=O)c3cc(OC)ccc3sc12"
  groupLabel: "n"

Please indicate how the test categorized CSc1nc2nc3c(nc2c(=O)n1C)C(=O)c1ccccc1C3=O .
y

Please indicate how the test categorized COc1cccc2cc(N(C)c3nc(C)nc4c3CCC4)ccc12 .
y

---

- Tested on: M14 melanoma
- assaySummary: NCI tumour cell line growth inhibition, 48 h
Record criterion met whenever TGI is at 20 µM or higher; record criterion not met when lower.

// known answers, use as guide
- molecule: "Clc1ccc(C2=CCN3CC=C(c4ccc(Cl)cc4)C23)cc1"
  groupLabel: "criterion met"
- molecule: "O=c1c2ccccc2nc2ccc3c(Cl)[nH][nH]c3c12"
  groupLabel: "criterion met"
- molecule: "CCCCCCSSC(=S)N(CC)CC"
  groupLabel: "criterion met"
- molecule: "O=C(C(=O)n1ncc(Cl)c(Cl)c1=O)n1ncc(Cl)c(Cl)c1=O"
  groupLabel: "criterion met"
- molecule: "O=c1c2nc(-c3ccccc3)oc2n(-c2ccccc2)c(=O)n1-c1ccccc1"
  groupLabel: "criterion met"

API: above_or_equal(metric=TGI, cutoff=20 µM) for item CCCc1cc(=O)n2c(C(=O)Nc3ccc(F)cc3)c(C(=O)Nc3ccc(F)cc3)sc2n1
criterion met

API: above_or_equal(metric=TGI, cutoff=20 µM) for item CC(=O)OC12C=C(C)C(C(C)C1)C1C(=O)N(CCN3CCCCC3)C(=O)C12 (stereo unspecified)
criterion met

API: above_or_equal(metric=TGI, cutoff=20 µM) for item Clc1cc(Cl)ncn1
criterion met

API: above_or_equal(metric=TGI, cutoff=20 µM) for item CS(=O)(=O)c1ccc(Nc2nc(N[C@H]3CCCC[C@H]3N)nc3cc[nH]c(=O)c23)cc1
criterion not met

API: above_or_equal(metric=TGI, cutoff=20 µM) for item CN(C)CCCn1c(=O)c2ccccc2c2cnc3[nH]ccc3c21
criterion not met

API: above_or_equal(metric=TGI, cutoff=20 µM) for item Cc1ccc(C)c(N2C(=O)C(=O)C(c3nc4ccccc4o3)C(=O)C2=O)c1
criterion met

---

- Tested on: A549 NSCLC
- assaySummary: NCI tumour cell line growth inhibition, 48 h
parameterMeasured: TGI

Known results for molecules:
- molecule: "CN(C)CC1CCC(CN(C)C)C(=O)C1=O (configuration not stated)"
  targetEntity: "A549 NSCLC"
  value: "25.1 µM"
- molecule: "Cc1nc(Nc2ccccc2Cl)sc1C(=O)CC(=O)C(N)=O"
  targetEntity: "A549 NSCLC"
  value: "> 100 µM"
- molecule: "CC1(C)COC(c2ccc(CC(Cc3ccc(C4(C(C)(C)C)OCC(C)(C)CO4)cc3)C(=O)O)cc2)(C(C)(C)C)OC1"
  targetEntity: "A549 NSCLC"
  value: "> 100 µM"
- molecule: "CC(CNC(N)=O)NC(N)=O (configuration not stated)"
  targetEntity: "A549 NSCLC"
  value: "> 100 µM"
- molecule: "COc1ccc2oc3c(OC)c(OC)c(OC)cc3c(=O)c2c1"
  targetEntity: "A549 NSCLC"
  value: "> 100 µM"
- molecule: "Cc1ccc([N+](=O)[O-])c2c(NCCNC(=O)c3cc(C(=O)NCCNc4ccnc5c(C)ccc([N+](=O)[O-])c45)n(C)n3)ccnc12"
  targetEntity: "A549 NSCLC"
  value: "> 68.8 µM"

API: the following record is the query input.
For O=C(NCC(F)(F)F)Nc1cccc(-c2cnc3cc(-c4ccc(F)cc4)ccn23)c1 on A549 NSCLC, measured TGI was > 100 µM

---

- Test system: RPMI-8226 leukemia
- assaySummary: NCI tumour cell line growth inhibition, 48 h
parameterMeasured: TGI (µM)
A number alone suffices; assume µM.

- compound: "COc1ccc(/C=C/c2c(C(=O)/C=C/c3ccc(C(F)(F)F)cc3)c(C)nc3ccccc23)cc1"
  TGI [µM]: 7.65

O=C(OCc1ccccc1)N1CCNCCNCCN(C(=O)OCc2ccccc2)CCNCC1 yielded TGI of 50.8

CCSC1=CC2(O)N(CCc3ccc(OC)c(OC)c3)C(=O)CC2(C(=O)OC)CC1=O (stereo unspecified) yielded TGI of 91.3

---

- Test system: SR leukemia
- assaySummary: NCI tumour cell line growth inhibition, 48 h
Entries and their TGI

- compound: "CC1(C)Oc2ccc3c(=O)cc(-c4ccccc4)oc3c2C1C(=O)O (configuration not stated)"
  value: "> 100 µM"
- compound: "Cc1ccccc1NC(=O)CC(=O)NNC(Sc1ccccc1)c1cc(N=Nc2ccc(Br)cc2)ccc1O (configuration not stated)"
  value: "4.07 µM"
- compound: "O=C(NCC(F)(F)F)Nc1cccc(-c2cnc3cc(-c4ccc(F)cc4)ccn23)c1"
  value: "11.1 µM"
- compound: "CCOC(=O)/C(=C/c1cccc(Cl)c1)N(CC)CC"
  value: "> 100 µM"
- compound: "Cc1cc(-c2nc3cccc(O)c3s2)ccc1N"
  value: "> 100 µM"

CC(C)=CCC[C@@H](C)C1=C(O)C(Nc2ccccc2I)=C(C)C(=O)C1=O yielded TGI of 21.4 µM

O=C(O)c1cccc(NC(C(=O)c2ccccc2)c2ccccc2)c1 (configuration not stated) yielded TGI of > 100 µM

CN(C)CCCn1c(=O)c2ccccc2c2cnc3[nH]ccc3c21 yielded TGI of 13.6 µM

Cc1ccc(C)c(N2C(=O)C(=O)C(c3nc4ccccc4o3)C(=O)C2=O)c1 yielded TGI of > 100 µM

CC(=O)OC12C=C(C)C(C(C)C1)C1C(=O)N(CCN3CCCCC3)C(=O)C12 (configuration not stated) yielded TGI of > 50 µM

---

- System: MCF7 breast
- assaySummary: NCI tumour cell line growth inhibition, 48 h
Record 1 whenever TGI is at 40 µM or higher; record -1 when lower.

// known answers, use as guide
- compound: "CC(C)(C)C1=C(Br)C(O)(C(C)(C)C)OP1(=O)c1ccccc1 (stereo unspecified)"
  groupLabel: 1
- compound: "C[C@H](C1CC2(C)OC2(C)C(=O)O1)[C@H]1CC[C@H]2[C@@H]3[C@@H]4O[C@@H]4[C@@]4(O)CC=CC(=O)[C@]4(C)[C@H]3CC[C@]12C (stereo partly specified)"
  groupLabel: 1
- compound: "CCCOC(=O)c1c(C)n(C)c2scc[n+]12"
  groupLabel: 1

API: above_or_equal(metric=TGI, cutoff=40 µM) for item [N-]=[N+]=NCCCn1c2c(c3ccc([N+](=O)[O-])cc3c1=O)C(=O)c1cc(Br)ccc1-2
1

API: above_or_equal(metric=TGI, cutoff=40 µM) for item Cc1ccc(S(=O)(=O)NC(=O)C2=C3SCCN3C(=O)N(S(=O)(=O)c3ccc(C)cc3)C2c2ccccc2)cc1 (stereo unspecified)
1

API: above_or_equal(metric=TGI, cutoff=40 µM) for item Clc1ccc(C2=CCN3CC=C(c4ccc(Cl)cc4)C23)cc1
-1

API: above_or_equal(metric=TGI, cutoff=40 µM) for item O=C(CN(/C=C/C(=O)C(F)(F)F)c1ccc(Cl)cc1)c1ccc(Cl)c(Cl)c1
-1

API: above_or_equal(metric=TGI, cutoff=40 µM) for item Cc1c(C#N)cccc1[C@@H](C)Nc1nnc(C)c2cnc(N3CCOCC3)cc12
1

API: above_or_equal(metric=TGI, cutoff=40 µM) for item COc1nc(C#CC2CCCCC2)nc(OC)n1
-1

API: above_or_equal(metric=TGI, cutoff=40 µM) for item CC(C)Oc1cccc(N2C(Nc3ccccc3)=Nc3ccncc3S2(=O)=O)c1
1
